- System: human basophils
- procedure_summary: Inhibition of histamine release from immunologically stimulated human basophils
- Assay type: cell-based
- condition_description: concentration causing 50% inhibition of histamine release, by linear regression; active if IC50 ≦ 48 µM; phosphate; read-out: IC50
- Description: The blood is allowed to sediment at room temperature in two 50 ml polycarbonate centrifuge tubes until a sharp interface develops between the red cells and plasma (60-90 minutes). The plasma (top) layer from each tube is withdrawn by pipet and transferred to respective 50 ml polycarbonate tubes. The plasma is centrifuged for 8 minutes at 110X G at 4°C. […]
readout: pIC50
Note: pIC50 values are expressed as the negative base-10 logarithm of concentration in M.

Form: compound = c1ccc(Nc2nccc(-c3ccncc3)n2)cc1 [phosphate] ; pIC50 = 5.48

Just so you know, measured pIC50 for Cc1cc(C)cc(Nc2nccc(-c3ccccn3)n2)c1 [phosphate] came out at 6.52

So, c1ccc(Nc2nccc(-c3cccnc3)n2)cc1 [phosphate] ? Its pIC50 was 5.57

Looking up Cc1cc(C)cc(Nc2nccc(-c3cccnc3)n2)c1 [phosphate] , I see its pIC50 listed as 5.52

Measured pIC50, COc1ccc(Nc2nccc(-c3cccnc3)n2)cc1 [phosphate] : 5.49
